System: NRG-mice bearing LNCaP tumors
Test: Biodistribution (and PET/SPECT imaging) in NRG-mice bearing LNCaP tumors
Type: in vivo
Conditions: 72 h p.i., Avg
*1 amine or outer side, *2 acyl side, *3 side chain or, on linkers, in order; H or OH if unused. Where a SMILES comes first, the peptide text is derived from it. [ ]: non-standard residue; d: D form. The star is where a group is joined. ξ: configuration not given here. ξLys(Nα-CO-ξAad) = O=C(O)CCCC(NC(=O)NC(CCCCN*)C(=O)O)C(=O)O; Butanoyl(4-(4-NO2Ph)) = O=C(CCCc1ccc([N+](=O)[O-])cc1)*; DOTA = O=C(O)CN1CCN(CC(=O)O)CCN(CC(=O)*)CCN(CC(=O)O)CC1; Butanoyl(4-(4-MeO-phenyl)) = COc1ccc(CCCC(=O)*)cc1; ξAla(9-anthryl) = NC(Cc1c2ccccc2cc2ccccc12)C(=O)O; X2 = O=C(NC(CCCCN*)C(=O)O)NC(CC(F)C(=O)O)C(=O)O; X1 = O=C(C1CCC(CN[*:1])CC1)[*:2]; ξK = NCCCCC(N)C(=O)O
Assay Readout: Biodistribution: Bone (% ID/g)
Numbers only here, please. The scale is % ID/g.

O=C([O-])CN1CCN(CC(=O)[O-])CCN(CC(=O)NCCCCC(NC(=O)CNC(=O)CCCc2ccc([N+](=O)[O-])cc2)C(=O)NCC(=O)NCC2CCC(C(=O)NC(Cc3c4ccccc4cc4ccccc34)C(=O)NCCCCC(NC(=O)NC(CCCC(=O)O)C(=O)O)C(=O)O)CC2)CCN(CC(=O)[O-])CC1.[225Ac+3] (centres unmarked) [^225Ac-CCZ02017] ({Butanoyl(4-(4-NO2Ph))}-G[ξK](DOTA)G[X1][ξAla(9-anthryl)]-{ξLys(Nα-CO-ξAad)}): 0.34
COc1ccc(CCCC(=O)NCC(=O)NC(CCCCNC(=O)CN2CCN(CC(=O)[O-])CCN(CC(=O)[O-])CCN(CC(=O)[O-])CC2)C(=O)NCC2CCC(C(=O)NC(Cc3c4ccccc4cc4ccccc34)C(=O)NCCCCC(NC(=O)NC(CCCC(=O)O)C(=O)O)C(=O)O)CC2)cc1.[177Lu+3] (centres unmarked) [^177Lu-HTK03170, reference compound]: 0.19
O=C([O-])CN1CCN(CC(=O)[O-])CCN(CC(=O)NCCCCC(NC(=O)CNC(=O)CCCc2ccc([N+](=O)[O-])cc2)C(=O)NCC(=O)NCC2CCC(C(=O)NC(Cc3c4ccccc4cc4ccccc34)C(=O)NCCCCC(NC(=O)NC(CCCC(=O)O)C(=O)O)C(=O)O)CC2)CCN(CC(=O)[O-])CC1.[177Lu+3] (centres unmarked) [^177Lu-CCZ02017] ({Butanoyl(4-(4-NO2Ph))}-G[ξK](DOTA)G[X1][ξAla(9-anthryl)]-{ξLys(Nα-CO-ξAad)}): 0.02
COc1ccc(CCCC(=O)NCC(=O)NC(CCCCNC(=O)CN2CCN(CC(=O)[O-])CCN(CC(=O)[O-])CCN(CC(=O)[O-])CC2)CC(=O)NCC2CCC(C(=O)NC(Cc3c4ccccc4cc4ccccc34)C(=O)NCCCCC(NC(=O)NC(CC(F)C(=O)O)C(=O)O)C(=O)O)CC2)cc1.[177Lu+3] (centres unmarked) [^177Lu-CCZ02019]: 0.05

Given COc1ccc(CCCC(=O)NCC(=O)NC(CCCCNC(=O)CN2CCN(CC(=O)[O-])CCN(CC(=O)[O-])CCN(CC(=O)[O-])CC2)C(=O)NCC(=O)NCC2CCC(C(=O)NC(Cc3c4ccccc4cc4ccccc34)C(=O)NCCCCC(NC(=O)NC(CC(F)C(=O)O)C(=O)O)C(=O)O)CC2)cc1.[177Lu+3] (centres unmarked) [^177Lu-CCZ02008] ({Butanoyl(4-(4-MeO-phenyl))}-G[ξK](DOTA)G[X1][ξAla(9-anthryl)]-X2) , state its recorded Biodistribution: Bone.
0.26

----------
Tested on: NRG-mice bearing LNCaP tumors
Experiment: Biodistribution (and PET/SPECT imaging) in NRG-mice bearing LNCaP tumors
Assay type: in vivo
Details: 24 h p.i., Avg
*1 amine or outer side, *2 acyl side, *3 side chain or, on linkers, in order; H or OH if unused. Where a SMILES comes first, the peptide text is derived from it. [ ]: non-standard residue; d: D form. The star is where a group is joined. ξ: configuration not given here. DOTA = O=C(O)CN1CCN(CC(=O)O)CCN(CC(=O)*)CCN(CC(=O)O)CC1; Butanoyl(4-(4-MeO-phenyl)) = COc1ccc(CCCC(=O)*)cc1; ξAla(9-anthryl) = NC(Cc1c2ccccc2cc2ccccc12)C(=O)O; X2 = O=C(NC(CCCCN*)C(=O)O)NC(CC(F)C(=O)O)C(=O)O; X1 = O=C(C1CCC(CN[*:1])CC1)[*:2]; ξK = NCCCCC(N)C(=O)O
Assay Readout: Biodistribution: Seminal gland (% ID/g)
Lab book: enter the figure in % ID/g, no units written.

Which value of Biodistribution: Seminal gland has been reported for COc1ccc(CCCC(=O)NCC(=O)NC(CCCCNC(=O)CN2CCN(CC(=O)[O-])CCN(CC(=O)[O-])CCN(CC(=O)[O-])CC2)C(=O)NCC(=O)NCC2CCC(C(=O)NC(Cc3c4ccccc4cc4ccccc34)C(=O)NCCCCC(NC(=O)NC(CC(F)C(=O)O)C(=O)O)C(=O)O)CC2)cc1.[177Lu+3] (stereo not shown) [^177Lu-CCZ02008] ({Butanoyl(4-(4-MeO-phenyl))}-G[ξK](DOTA)G[X1][ξAla(9-anthryl)]-X2) in the records?
0.38

----------
System: NRG-mice bearing LNCaP tumors
Assay: Biodistribution (and PET/SPECT imaging) in NRG-mice bearing LNCaP tumors
Type: in vivo
Conditions: 72 h p.i., Avg
*1 amine or outer side, *2 acyl side, *3 side chain or, on linkers, in order; H or OH if unused. Where a SMILES comes first, the peptide text is derived from it. [ ]: non-standard residue; d: D form. The star is where a group is joined. ξ: configuration not given here. DOTA = O=C(O)CN1CCN(CC(=O)O)CCN(CC(=O)*)CCN(CC(=O)O)CC1; Butanoyl(4-(4-MeO-phenyl)) = COc1ccc(CCCC(=O)*)cc1; ξAla(9-anthryl) = NC(Cc1c2ccccc2cc2ccccc12)C(=O)O; X2 = O=C(NC(CCCCN*)C(=O)O)NC(CC(F)C(=O)O)C(=O)O; X1 = O=C(C1CCC(CN[*:1])CC1)[*:2]; ξK = NCCCCC(N)C(=O)O
Assay Readout: Biodistribution: Muscle (% ID/g)
Numbers only here, please. The scale is % ID/g.

Requested read-out: Biodistribution: Muscle. Entry: COc1ccc(CCCC(=O)NCC(=O)NC(CCCCNC(=O)CN2CCN(CC(=O)[O-])CCN(CC(=O)[O-])CCN(CC(=O)[O-])CC2)C(=O)NCC(=O)NCC2CCC(C(=O)NC(Cc3c4ccccc4cc4ccccc34)C(=O)NCCCCC(NC(=O)NC(CC(F)C(=O)O)C(=O)O)C(=O)O)CC2)cc1.[177Lu+3] (stereo not shown) [^177Lu-CCZ02008] ({Butanoyl(4-(4-MeO-phenyl))}-G[ξK](DOTA)G[X1][ξAla(9-anthryl)]-X2)
0.11

----------
Let's look at some compounds and their measured Biodistribution: Stomach.
Test system: NRG-mice bearing LNCaP tumors
Assay: Biodistribution (and PET/SPECT imaging) in NRG-mice bearing LNCaP tumors
Format: in vivo
Details: 3 h p.i., Avg
*1 amine or outer side, *2 acyl side, *3 side chain or, on linkers, in order; H or OH if unused. Where a SMILES comes first, the peptide text is derived from it. [ ]: non-standard residue; d: D form. The star is where a group is joined. ξ: configuration not given here. ξLys(Nα-CO-ξAad) = O=C(O)CCCC(NC(=O)NC(CCCCN*)C(=O)O)C(=O)O; Butanoyl(4-(4-NO2Ph)) = O=C(CCCc1ccc([N+](=O)[O-])cc1)*; DOTA = O=C(O)CN1CCN(CC(=O)O)CCN(CC(=O)*)CCN(CC(=O)O)CC1; ξAla(9-anthryl) = NC(Cc1c2ccccc2cc2ccccc12)C(=O)O; X1 = O=C(C1CCC(CN[*:1])CC1)[*:2]; ξK = NCCCCC(N)C(=O)O
Reply with just the number (in % ID/g).

Sample records with Biodistribution: Stomach:
COc1ccc(CCCC(=O)NCC(=O)NC(CCCCNC(=O)CN2CCN(CC(=O)[O-])CCN(CC(=O)[O-])CCN(CC(=O)[O-])CC2)CC(=O)NCC2CCC(C(=O)NC(Cc3c4ccccc4cc4ccccc34)C(=O)NCCCCC(NC(=O)NC(CCCC(=O)O)C(=O)O)C(=O)O)CC2)cc1.[68Ga+3] (stereo not drawn) [^68Ga-CCZ02015]: 0.84
O=C([O-])CN1CCN(CC(=O)[O-])CCN(CC(=O)NCCCCC(NC(=O)CNC(=O)CCCc2ccc([N+](=O)[O-])cc2)C(=O)NCC(=O)NCC2CCC(C(=O)NC(Cc3c4ccccc4cc4ccccc34)C(=O)NCCCCC(NC(=O)NC(CCCC(=O)O)C(=O)O)C(=O)O)CC2)CCN(CC(=O)[O-])CC1.[225Ac+3] (stereo not drawn) [^225Ac-CCZ02017] ({Butanoyl(4-(4-NO2Ph))}-G[ξK](DOTA)G[X1][ξAla(9-anthryl)]-{ξLys(Nα-CO-ξAad)}): 0.47

# context switch: different compound, same Biodistribution: Stomach
Item under review: O=C([O-])CN1CCN(CC(=O)[O-])CCN(CC(=O)NCCCCC(NC(=O)CNC(=O)CCCc2ccc([N+](=O)[O-])cc2)C(=O)NCC(=O)NCC2CCC(C(=O)NC(Cc3c4ccccc4cc4ccccc34)C(=O)NCCCCC(NC(=O)NC(CCCC(=O)O)C(=O)O)C(=O)O)CC2)CCN(CC(=O)[O-])CC1.[177Lu+3] (stereo not drawn) [^177Lu-CCZ02017] ({Butanoyl(4-(4-NO2Ph))}-G[ξK](DOTA)G[X1][ξAla(9-anthryl)]-{ξLys(Nα-CO-ξAad)}) . Reported Biodistribution: Stomach?
1.55
